Test system: Enterococcus faecalis CL5244, VanB
methodDescription: MIC susceptibility test
Format: cell-based
appliedConditions: Enterococcus faecalis CL5244, VanB; read-out: MIC CL5244
For each record, write down the corresponding MIC.
Output spec: scalar in µg/mL, unitless text.

Prompt line: What reported MIC corresponds to CCCCCCCCCCNC1(C)CC(OC2C(Oc3c4cc5cc3Oc3ccc(cc3Cl)[C@@H](O)[C@@H](NC(=O)[C@H](CC(C)C)NC)C(=O)N[C@@H](CC(N)=O)C(=O)N[C@H]5C(=O)NC3C(=O)N[C@H](C(=O)N[C@@H](C(=O)O)c5cc(O)cc(O)c5-c5cc3ccc5O)[C@H](O)c3ccc(c(Cl)c3)O4)OC(CSc3nnc(C)c(O)n3)C(O)C2O)OC(C)C1O (stereo partly drawn) [LXXIX] on Enterococcus faecalis CL5244, VanB?
Response line: 0.6

Prompt line: What reported MIC corresponds to CN[C@@H](CC(C)C)C(=O)N[C@H]1C(=O)N[C@@H](CC(N)=O)C(=O)N[C@H]2C(=O)NC3C(=O)N[C@H](C(=O)N[C@@H](C(=O)O)c4cc(O)cc(O)c4-c4cc3ccc4O)[C@H](O)c3ccc(c(Cl)c3)Oc3cc2cc(c3OC2OC(CNN)C(O)C(O)C2OC2CC(C)(N)C(O)C(C)O2)Oc2ccc(cc2Cl)[C@H]1O (stereo partly drawn) [XLIV, Glucose-C6-hydrazine Vancomycin] on Enterococcus faecalis CL5244, VanB?
Response line: 50

----------
Test system: Enterococcus faecium CL5137, VanA
methodDescription: MIC susceptibility test
Format: cell-based
appliedConditions: Enterococcus faecium CL5137, VanA; read-out: MIC CL5137
measuredMetric: MIC (µg/mL)
Output spec: scalar in µg/mL, unitless text.

Prompt line: Form field: reported MIC of CCCCCCCCCCNC1(C)CC(OC2C(Oc3c4cc5cc3Oc3ccc(cc3Cl)[C@@H](O)[C@@H](NC(=O)[C@H](CC(C)C)NC)C(=O)N[C@@H](CC(N)=O)C(=O)N[C@H]5C(=O)NC3C(=O)N[C@H](C(=O)N[C@@H](C(=O)O)c5cc(O)cc(O)c5-c5cc3ccc5O)[C@H](O)c3ccc(c(Cl)c3)O4)OC(CSc3nc4cc(Cl)ccc4s3)C(O)C2O)OC(C)C1O (some centres unmarked)
Response line: 50

Prompt line: Form field: reported MIC of C=C1N[C@@H]2C(=O)N[C@@H](C(=O)O)c3cc(O)cc(O)c3-c3cc(ccc3O)C1NC(=O)[C@@H]1NC(=O)[C@H](CC(N)=O)NC(=O)[C@H](NC(=O)[C@H](CC(C)C)NC)[C@H](O)c3ccc(c(Cl)c3)Oc3cc1cc(c3OC1OC(CSc3nc(-c4ccccc4)c(-c4ccccc4)o3)C(O)C(O)C1OC1CC(C)(N)C(O)C(C)O1)Oc1ccc(cc1Cl)[C@H]2O (some centres unmarked)
Response line: 50

Prompt line: Form field: reported MIC of CN[C@@H](CC(C)C)C(=O)N[C@H]1C(=O)N[C@@H](CC(N)=O)C(=O)N[C@H]2C(=O)NC3C(=O)N[C@H](C(=O)N[C@@H](C(=O)O)c4cc(O)cc(O)c4-c4cc3ccc4O)[C@H](O)c3ccc(c(Cl)c3)Oc3cc2cc(c3OC2OC(CSc3nnc(N)s3)C(O)C(O)C2OC2CC(C)(NCc3ccc(-c4ccc(Cl)cc4)cc3)C(O)C(C)O2)Oc2ccc(cc2Cl)[C@H]1O (some centres unmarked)
Response line: 3.2

Prompt line: Form field: reported MIC of CN[C@@H](CC(C)C)C(=O)N[C@H]1C(=O)N[C@@H](CC(N)=O)C(=O)N[C@H]2C(=O)NC3C(=O)N[C@H](C(=O)N[C@@H](C(=O)O)c4cc(O)cc(O)c4-c4cc3ccc4O)[C@H](O)c3ccc(c(Cl)c3)Oc3cc2cc(c3OC2OC(CSc3nnc(NN)n3N)C(O)C(O)C2OC2CC(C)(NCc3ccc(-c4ccc(Cl)cc4)cc3)C(O)C(C)O2)Oc2ccc(cc2Cl)[C@H]1O (some centres unmarked)
Response line: 6.3

Prompt line: Form field: reported MIC of CCCCCCCCCCNC1(C)CC(OC2C(Oc3c4cc5cc3Oc3ccc(cc3Cl)[C@@H](O)[C@@H](NC(=O)[C@H](CC(C)C)NC)C(=O)N[C@@H](CC(N)=O)C(=O)N[C@H]5C(=O)NC3C(=O)N[C@H](C(=O)N[C@@H](C(=O)O)c5cc(O)cc(O)c5-c5cc3ccc5O)[C@H](O)c3ccc(c(Cl)c3)O4)OC(CSc3nnc(C)c(O)n3)C(O)C2O)OC(C)C1O (some centres unmarked)
Response line: 25

Prompt line: Form field: reported MIC of CN[C@@H](CC(C)C)C(=O)N[C@H]1C(=O)N[C@@H](CC(N)=O)C(=O)N[C@H]2C(=O)NC3C(=O)N[C@H](C(=O)N[C@@H](C(=O)O)c4cc(O)cc(O)c4-c4cc3ccc4O)[C@H](O)c3ccc(c(Cl)c3)Oc3cc2cc(c3OC2OC(CSc3nc4cc(Cl)ccc4s3)C(O)C(O)C2OC2CC(C)(N)C(O)C(C)O2)Oc2ccc(cc2Cl)[C@H]1O (some centres unmarked)
Response line: 50

----------
Test system: Enterococcus faecalis CL5244, VanB
methodDescription: MIC susceptibility test
Type: cell-based
appliedConditions: Enterococcus faecalis CL5244, VanB; read-out: MIC CL5244
measuredMetric: MIC (µg/mL)
Output spec: scalar in µg/mL, unitless text.

Prompt line: Form field: reported MIC of CN[C@@H](CC(C)C)C(=O)N[C@H]1C(=O)N[C@@H](CC(N)=O)C(=O)N[C@H]2C(=O)NC3C(=O)N[C@H](C(=O)N[C@@H](C(=O)O)c4cc(O)cc(O)c4-c4cc3ccc4O)[C@H](O)c3ccc(c(Cl)c3)Oc3cc2cc(c3OC2OC(CSc3nnnn3C)C(O)C(O)C2OC2CC(C)(N)C(O)C(C)O2)Oc2ccc(cc2Cl)[C@H]1O (some centres unmarked)
Response line: 50

Prompt line: Form field: reported MIC of CN[C@@H](CC(C)C)C(=O)N[C@H]1C(=O)N[C@@H](CC(N)=O)C(=O)N[C@H]2C(=O)NC3C(=O)N[C@H](C(=O)N[C@@H](C(=O)O)c4cc(O)cc(O)c4-c4cc3ccc4O)[C@H](O)c3ccc(c(Cl)c3)Oc3cc2cc(c3OC2OC(CSc3nnc(NN)n3N)C(O)C(O)C2OC2CC(C)(N)C(O)C(C)O2)Oc2ccc(cc2Cl)[C@H]1O (some centres unmarked)
Response line: 3.2

Prompt line: Form field: reported MIC of CN[C@@H](CC(C)C)C(=O)N[C@H]1C(=O)N[C@@H](CC(N)=O)C(=O)N[C@H]2C(=O)NC3C(=O)N[C@H](C(=O)N[C@@H](C(=O)O)c4cc(O)cc(O)c4-c4cc3ccc4O)[C@H](O)c3ccc(c(Cl)c3)Oc3cc2cc(c3OC2OC(CSc3nc4cc(Cl)ccc4s3)C(O)C(O)C2OC2CC(C)(N)C(O)C(C)O2)Oc2ccc(cc2Cl)[C@H]1O (some centres unmarked)
Response line: 0.4

Prompt line: Form field: reported MIC of CN[C@@H](CC(C)C)C(=O)N[C@H]1C(=O)N[C@@H](CC(N)=O)C(=O)N[C@H]2C(=O)NC3C(=O)N[C@H](C(=O)N[C@@H](C(=O)O)c4cc(O)cc(O)c4-c4cc3ccc4O)[C@H](O)c3ccc(c(Cl)c3)Oc3cc2cc(c3OC2OC(COS(=O)(=O)c3c(C)cc(C)cc3C)C(O)C(O)C2OC2CC(C)(NCc3ccc(-c4ccc(Cl)cc4)cc3)C(O)C(C)O2)Oc2ccc(cc2Cl)[C@H]1O (some centres unmarked)
Response line: 0.8

Prompt line: Form field: reported MIC of CN[C@@H](CC(C)C)C(=O)N[C@H]1C(=O)N[C@@H](CC(N)=O)C(=O)N[C@H]2C(=O)NC3C(=O)N[C@H](C(=O)N[C@@H](C(=O)O)c4cc(O)cc(O)c4-c4cc3ccc4O)[C@H](O)c3ccc(c(Cl)c3)Oc3cc2cc(c3OC2OC(CSc3nc4cc(OC)ccc4[nH]3)C(O)C(O)C2OC2CC(C)(N)C(O)C(C)O2)Oc2ccc(cc2Cl)[C@H]1O (some centres unmarked)
Response line: 13

----------
Test system: Enterococcus faecalis CL5244, VanB
methodDescription: MIC susceptibility test
Type: cell-based
appliedConditions: Enterococcus faecalis CL5244, VanB; read-out: MIC CL5244
measuredMetric: MIC (µg/mL)
Output spec: scalar in µg/mL, unitless text.

Prompt line: Form field: reported MIC of CN[C@@H](CC(C)C)C(=O)N[C@H]1C(=O)N[C@@H](CC(N)=O)C(=O)N[C@H]2C(=O)NC3C(=O)N[C@H](C(=O)N[C@@H](C(=O)O)c4cc(O)cc(O)c4-c4cc3ccc4O)[C@H](O)c3ccc(c(Cl)c3)Oc3cc2cc(c3OC2OC(CSc3ccc(Br)cc3)C(O)C(O)C2OC2CC(C)(N)C(O)C(C)O2)Oc2ccc(cc2Cl)[C@H]1O (some centres unmarked)
Response line: 6.3

Prompt line: Form field: reported MIC of CN[C@@H](CC(C)C)C(=O)N[C@H]1C(=O)N[C@@H](CC(N)=O)C(=O)N[C@H]2C(=O)NC3C(=O)N[C@H](C(=O)N[C@@H](C(=O)O)c4cc(O)cc(O)c4-c4cc3ccc4O)[C@H](O)c3ccc(c(Cl)c3)Oc3cc2cc(c3OC2OC(CSc3nnc(N)s3)C(O)C(O)C2OC2CC(C)(NCc3ccc(-c4ccc(Cl)cc4)cc3)C(O)C(C)O2)Oc2ccc(cc2Cl)[C@H]1O (some centres unmarked)
Response line: 0.2
